biological target: T1, hK1 (human tissue kallikrein 1), recombinant (human, UniProt P06870 25-262); assay: SPR
T1 construct: Expressed in P. pastoris from KLK1 cDNA and purified; enzymatically active; also called KLK1; Recombinant (Pichia) Kallikrein
kon overview
Numeric only. Scale: M⁻¹ s⁻¹

# example entries with known answers
M0136-D07 (Fab, V domains shown) VH: EVQLLESGGGLVQPGGSLRLSCAASGFTFSPYKMGWVRQAPGKGLEWVSSIYPSGGVTTYADSVKGRFTISRDNSKNTLYLQMNSLRAEDTAVYYCTKNINLRYDILTGYFDIWGQGTTVTVSS VL: DIQMTQSPSSVSASVGDRVTITCRASQDIASWLAWYQQKPEKVPKLLIYAASSLQSGVPSRFSGSGSGTDFTLTINSLQPEDFATYYCQQANSFPFTFGPGTKVDFKR = 176000
M0102-D07 (Fab, V domains shown) VH: EVQLLESGGGLVQPGGSLRLSCAASGFTFSRYWMWWVRQAPGKGLEWVSSIGPSGGATRYADSVKGRFTISRDNSKNTLYLQMNSLRAEDTAVYYCTTGSAGNWGQGTLVTVSS VL: DIQMTQSPGTLSLSPGERATLSCGASQSVSTTYIAWYQHKPGQPPRLLIYGASNRATGIPDRFRGSGSGTDFTLTISRLEPEDFAVYYCQQYGSSPYTFGQGTKLEIKR = 155000

Let's switch to this binder now.
What does the record list as kon for M0136-F08 (Fab, V domains shown) VH: EVQLLESGGGLVQPGGSLRLSCAASGFTFSHYKMGWVRQAPGKGLEWVSSIRPSGGATKYADSVKGRFTISRDNSKNTLYLQMNSLRAEDTAVYYCARVGIWDAFDIWGQGAMVTVSS VL: DIQMTQSPGTLSLSPGERATLSCRASQSVSSSYLAWYQQKPGQAPRLLIYDASNRATGIPARFSGSGSGTDFTLTISSLEPEDFAVYYCQQWDTFGQGTKLEIKR ? 476000

Recorded values, source patent US7329737.
